# experimental-protocol: UV absorption properties (λmax, molar extinction coefficient ε, efficiency E 1%, 1 cm)
# Type: physicochemical
# experimental-parameters: Table 10
Checkbox rule: E (1%, 1 cm) lower than 600 = 1 (yes); E (1%, 1 cm) not lower than 600 = 0 (no).

[
  {
    "compound": "Cc1ccc(N2C=CC(C)(C)C(C(=O)C(F)(F)F)=C2)cc1 [drawing 151]",
    "group": "1 (yes)"
  },
  {
    "compound": "Cc1cc(N2C=CC(C)(C)C=C2)n(C)n1 [drawing 152]",
    "group": "1 (yes)"
  },
  {
    "compound": "Cc1ccc(N2C=CC(C)(C)C=C2)cc1",
    "group": "0 (no)"
  },
  {
    "compound": "Cc1ccc(N2C=CC(C)(C)CC2)cc1",
    "group": "0 (no)"
  },
  {
    "compound": "Cc1nn(C)c(N2C=CC(C)(C)C=C2)c1C(=O)C(F)(F)F [drawing 153]",
    "group": "1 (yes)"
  },
  {
    "compound": "CC1(C)C=CN(c2ccncc2)C=C1",
    "group": "0 (no)"
  }
]

====

Listed next: entries and their corresponding ε.
# experimental-protocol: UV absorption properties (λmax, molar extinction coefficient ε, efficiency E 1%, 1 cm)
# Type: physicochemical
# experimental-parameters: Table 3; in M-1 cm-1

[
  {
    "compound": "CCCCNC(=O)C1=CN(C(C)(C)C)CCC1(C)C [drawing 61]",
    "ε": 22531
  },
  {
    "compound": "CC1(C)CCN(C(C)(C)C)C=C1C(=O)Nc1cccc(NC(=O)C2=CN(C(C)(C)C)CCC2(C)C)c1 [drawing 66]",
    "ε": 55779
  },
  {
    "compound": "Cc1ccc(NC(=O)C2=CN(C(C)(C)C)CCC2(C)C)cc1NC(=O)C1=CN(C(C)(C)C)CCC1(C)C [drawing 62]",
    "ε": 59763
  },
  {
    "compound": "CN(C(=O)C1=CN(C(C)(C)C)CCC1(C)C)c1ccccc1 [drawing 58]",
    "ε": 15174
  }
]

====

# experimental-protocol: UV absorption properties (λmax, molar extinction coefficient ε, efficiency E 1%, 1 cm)
# Assay type: physicochemical
# experimental-parameters: values in order of the λmax values
measurement-name: ε (molar extinction coefficient) (M⁻¹ cm⁻¹)

[
  {
    "entry-smiles": "COc1ccc(N2C=CC(C)(C)CC2)cc1",
    "recorded-result": 22550
  },
  {
    "entry-smiles": "CC(C)CN1C=C(C(=O)c2ccc(Br)cc2)C(C)(C)CC1",
    "recorded-result": 22500
  },
  {
    "entry-smiles": "CC(C)CN1C=C(C(=O)c2ccc(C(=O)C3=CN(CC(C)C)CCC3(C)C)cc2)C(C)(C)CC1",
    "recorded-result": 20000
  },
  {
    "entry-smiles": "CC(C)CN1C=C(C(=O)c2ccc(C(=O)c3ccccc3)cc2)C(C)(C)CC1",
    "recorded-result": 7500
  },
  {
    "entry-smiles": "CC1(C)CCN(C(C)(C)C)C=C1C(=O)c1ccc(C(=O)C2=CN(C(C)(C)C)CCC2(C)C)cc1",
    "recorded-result": 33982
  }
]

====

Recorded E (1%, 1 cm) for the following compounds
# experimental-protocol: UV absorption properties (λmax, molar extinction coefficient ε, efficiency E 1%, 1 cm)
# Format: physicochemical
# experimental-parameters: Table 13B; values in order of the λmax values

[
  {
    "compound": "Cc1cc(/C=C/C(=O)C2=CN(C(C)(C)C)CCC2(C)C)c(C)cc1/C=C/C(=O)C1=CN(C(C)(C)C)CCC1(C)C",
    "E (1%, 1 cm)": 591
  },
  {
    "compound": "CC1(C)CCN(C(C)(C)C)C=C1C(=O)/C=C/c1ccc(/C=C/C(=O)C2=CN(C(C)(C)C)CCC2(C)C)c([N+](=O)[O-])c1",
    "E (1%, 1 cm)": 369
  },
  {
    "compound": "CCCCC(CC)COC(=O)c1cc(/C=C/C(=O)C2=CN(C(C)(C)C)CCC2(C)C)ccc1/C=C/C(=O)C1=CN(C(C)(C)C)CCC1(C)C (stereo not shown)",
    "E (1%, 1 cm)": 460
  },
  {
    "compound": "CC(C)(C)CC(C)(C)N1C=C(C(=O)/C=C/c2ccc(/C=C/C(=O)C3=CN(C(C)(C)CC(C)(C)C)CCC3(C)C)cc2)C(C)(C)CC1",
    "E (1%, 1 cm)": 486
  },
  {
    "compound": "CC1(C)CCN(C(C)(C)C)C=C1C(=O)c1c(F)c(F)c(F)c(F)c1F",
    "E (1%, 1 cm)": 951
  },
  {
    "compound": "CC(C)CN1C=C(C(=O)C(C)(C)C)C(C)(C)CC1",
    "E (1%, 1 cm)": 1137
  },
  {
    "compound": "COc1cc(/C=C/C(=O)C2=CN(C(C)(C)C)CCC2(C)C)c(OC)cc1/C=C/C(=O)C1=CN(C(C)(C)C)CCC1(C)C",
    "E (1%, 1 cm)": 559
  }
]

====

λmax by entry:
# experimental-protocol: UV absorption properties (λmax, molar extinction coefficient ε, efficiency E 1%, 1 cm)
# Assay type: physicochemical
# experimental-parameters: Table 13B, miscellaneous compounds
measurement-name: λmax (nm)

[
  {
    "compound": "CCOC(=O)C(=O)C1=CN(C(C)(C)C)CCC1(C)C",
    "recorded-result": 311
  },
  {
    "compound": "CCCCCCCCCC(=O)C1=CN(c2ccc(N3C=C(C(=O)CCCCCCCCC)C(C)(C)CC3)cc2)CCC1(C)C",
    "recorded-result": 359
  },
  {
    "compound": "Cc1cc(-c2ccc(N3C=C(C(=O)C(F)(F)F)C(C)(C)CC3)c(C)c2)ccc1N1C=CC(C)(C)C(C(=O)C(F)(F)F)=C1",
    "recorded-result": 326
  },
  {
    "compound": "CC1(C)CCN(C(C)(C)C)C=C1C(=O)c1ccccc1",
    "recorded-result": 315
  },
  {
    "compound": "CCCCC(CC)COC(=O)c1cc(/C=C/C(=O)C2=CN(C(C)(C)C)CCC2(C)C)ccc1/C=C/C(=O)C1=CN(C(C)(C)C)CCC1(C)C (centres unmarked)",
    "recorded-result": 378
  },
  {
    "compound": "CC(C)(C)CC(C)(C)N1C=C(C(=O)/C=C/c2ccc(/C=C/C(=O)Cl)cc2)C(C)(C)CC1",
    "recorded-result": 374
  },
  {
    "compound": "CC1(C)CCN(C(C)(C)C)C=C1C(=O)c1ccc(F)cc1",
    "recorded-result": 316
  },
  {
    "compound": "CCOC(=O)C(=O)C1=CN(c2ccccc2)CCC1(C)C",
    "recorded-result": 332
  }
]

====

# experimental-protocol: Critical wavelength (λcrit), approximate in-house measurement
# Assay type: physicochemical
# experimental-parameters: Table 13B
The compounds listed here are annotated with their λcrit.

[
  {
    "compound": "CC1(C)CCN(C(C)(C)C)C=C1C(=O)c1ccc(Nc2ccccc2)cc1",
    "λcrit / nm": 361
  },
  {
    "compound": "COc1cc(/C=C/C(=O)C2=CN(C(C)(C)C)CCC2(C)C)c(OC)cc1/C=C/C(=O)C1=CN(C(C)(C)C)CCC1(C)C",
    "λcrit / nm": 391
  },
  {
    "compound": "CC1(C)CCN(C(C)(C)C)C=C1C(=O)c1ccc(N2CCCN(c3ccc(C(=O)C4=CN(C(C)(C)C)CCC4(C)C)cc3)CC2)cc1",
    "λcrit / nm": 365
  },
  {
    "compound": "Cc1cc(-c2ccc(N3C=C(C(=O)C(F)(F)F)C(C)(C)CC3)c(C)c2)ccc1N1C=CC(C)(C)C(C(=O)C(F)(F)F)=C1",
    "λcrit / nm": 378
  },
  {
    "compound": "CC1(C)CCN(C(C)(C)C)C=C1C(=O)c1ccc(F)cc1",
    "λcrit / nm": 346
  },
  {
    "compound": "CCCCC(CC)CNc1ccc(C(=O)C2=CN(C(C)(C)C)CCC2(C)C)cc1 (stereo not drawn)",
    "λcrit / nm": 362
  }
]

====

# experimental-protocol: UV absorption properties (λmax, molar extinction coefficient ε, efficiency E 1%, 1 cm)
# Assay type: physicochemical
# experimental-parameters: Table 8b; in M-1 cm-1
Parameter ε: see the listing below.
measurement-name: ε

[
  {
    "compound": "COc1ccc(N2C=C(C(=O)Cc3ccccc3)C(C)(C)CC2)cc1 [drawing 133]",
    "recorded-result": 33786
  },
  {
    "compound": "COc1ccc(N2C=C(C(=O)C3CCCC3=O)C(C)(C)CC2)cc1 (stereo not drawn) [drawing 130]",
    "recorded-result": 30675
  },
  {
    "compound": "Cc1ccc(N2C=C(C(=O)CCCCCCCCC(=O)C3=CN(c4ccc(C)cc4)CCC3(C)C)C(C)(C)CC2)cc1 [drawing 131]",
    "recorded-result": 52737
  }
]
